Would you kindly list SGCB cell-surface expression functional score (log10) for each of these variants?
B1: library; numbered along this chain (parent)
chain: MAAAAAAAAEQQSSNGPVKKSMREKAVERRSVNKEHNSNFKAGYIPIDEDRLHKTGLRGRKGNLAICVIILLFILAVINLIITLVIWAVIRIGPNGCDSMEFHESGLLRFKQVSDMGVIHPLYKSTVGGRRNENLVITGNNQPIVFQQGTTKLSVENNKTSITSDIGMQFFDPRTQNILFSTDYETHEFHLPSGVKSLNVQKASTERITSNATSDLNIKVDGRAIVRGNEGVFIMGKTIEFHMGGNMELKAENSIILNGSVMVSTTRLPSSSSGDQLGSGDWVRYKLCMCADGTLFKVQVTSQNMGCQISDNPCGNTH

# Variants of: B1
# Measurement notes: SGCB cell-surface expression functional score (HA stain, bin4 vs bin1, normalised to synonymous) (log10 ratio); higher = more cell-surface SGCB (functional)
Write the value as a bare number.

q: Quickly give me recorded SGCB cell-surface expression functional score (log10) for V85F
a: -0.43

q: Quickly give me recorded SGCB cell-surface expression functional score (log10) for S302F
a: 0.61

q: Quickly give me recorded SGCB cell-surface expression functional score (log10) for G117Q
a: -1.06

q: Quickly give me recorded SGCB cell-surface expression functional score (log10) for G245W
a: 0.92

q: Quickly give me recorded SGCB cell-surface expression functional score (log10) for K219T
a: 0.6

q: Quickly give me recorded SGCB cell-surface expression functional score (log10) for I218Q
a: -2.02
